Test system: SH-SY5Y cells
procedure_details: AK (adenylate kinase) release ToxiLight cytotoxicity assay; also: reference of the scale not given here
condition_notes: PKIS2 primary screening
Kindly apply the following: satisfied if AK is less than 100, not satisfied in every other case.

Worked cases, answers included:
INSERT INTO measurements (compound, test_system, class_label) VALUES
  ('Nc1nc(-c2ccc3c(N)n[nH]c3c2)cc(N2CCCC(NC(=O)c3ccccc3)C2)n1 (stereo not shown)', 'SH-SY5Y cells', 'not satisfied'),
  ('Cc1ccc2c(-c3ccncc3)c(-c3ccc(F)cc3)nn2c1.Cl [UNC10225321A]', 'SH-SY5Y cells', 'satisfied');

Please determine if "COC(=O)Nc1nc2ccc(Oc3ccc(NC(=O)Nc4cccc(SC)c4)cc3)cc2[nH]1" is below 100 in terms of AK.
satisfied

AK under 100? Item: O=S(=O)(c1ccc(-c2ccnc3[nH]ccc23)cc1)N1CCCC1 [UNC10225462A]
not satisfied

Source listed as paper PMC9851200.
